- TARGET: Tumour suppressor p53/oncoprotein Mdm2 (Homo sapiens, UniProt Q00987)
- Sequence (P04637 whole entry): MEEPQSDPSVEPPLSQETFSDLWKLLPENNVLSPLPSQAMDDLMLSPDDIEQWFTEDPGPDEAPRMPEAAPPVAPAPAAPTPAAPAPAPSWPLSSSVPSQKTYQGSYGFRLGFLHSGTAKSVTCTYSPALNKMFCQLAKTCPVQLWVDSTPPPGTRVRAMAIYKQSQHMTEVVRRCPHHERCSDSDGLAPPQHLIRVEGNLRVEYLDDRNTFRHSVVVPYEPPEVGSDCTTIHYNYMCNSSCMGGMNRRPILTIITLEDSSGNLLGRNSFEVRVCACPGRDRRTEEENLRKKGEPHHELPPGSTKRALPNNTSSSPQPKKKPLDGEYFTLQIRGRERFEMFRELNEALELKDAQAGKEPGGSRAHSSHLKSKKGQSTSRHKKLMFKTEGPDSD
- Sequence (Q00987 whole entry): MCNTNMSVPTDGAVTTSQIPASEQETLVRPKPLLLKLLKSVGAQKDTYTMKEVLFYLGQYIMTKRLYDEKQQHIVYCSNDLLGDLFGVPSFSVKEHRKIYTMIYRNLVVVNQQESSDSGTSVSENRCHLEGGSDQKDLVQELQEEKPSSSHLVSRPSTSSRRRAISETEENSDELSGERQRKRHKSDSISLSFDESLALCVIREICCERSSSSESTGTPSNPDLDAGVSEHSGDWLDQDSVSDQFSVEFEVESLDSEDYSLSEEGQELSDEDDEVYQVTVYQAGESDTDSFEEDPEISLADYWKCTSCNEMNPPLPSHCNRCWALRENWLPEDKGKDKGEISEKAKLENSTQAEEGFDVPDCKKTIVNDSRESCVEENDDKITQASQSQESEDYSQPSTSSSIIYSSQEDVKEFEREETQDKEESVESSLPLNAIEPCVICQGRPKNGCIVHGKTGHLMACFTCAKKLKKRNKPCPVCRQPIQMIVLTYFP
- EXPERIMENTAL_PROTOCOL: Competitive inhibition of MDM2/P53 interaction after 1 hr by fluorescence polarization assay
- Format: protein assay
- CONDITION_SET: read-out: IC50
pIC50: −log10 of the molar value.
OBSERVED_PROPERTY: pIC50

// worked examples, pIC50 included
COMPOUND_SMILES: COc1ccc(C2=N[C@H](c3ccc(Cl)cc3)[C@H](c3ccc(Cl)cc3)N2C(=O)NCCCC(=O)O)c(OC(C)C)c1
pIC50: 5.69
//
COMPOUND_SMILES: CCOC(=O)CCCNC(=O)N1C(c2ccc(OC)cc2OC(C)C)=N[C@H](c2ccc(Cl)cc2)[C@@H]1c1ccc(Cl)cc1
pIC50: 5.78
//
COMPOUND_SMILES: COc1ccc(C2=N[C@H](c3ccc(Cl)cc3)[C@H](c3ccc(Cl)cc3)N2C(=O)NCC(=O)N2CCCC2)c(OC(C)C)c1
pIC50: 4.99

(A) COc1ccc(C2=N[C@H](c3ccc(Cl)cc3)[C@H](c3ccc(Cl)cc3)N2C(=O)NCCC(=O)N2CCOCC2)c(OC(C)C)c1
(B) COc1ccc(C2=N[C@H](c3ccc(Cl)cc3)[C@H](c3ccc(Cl)cc3)N2C(=O)NCCC(=O)N2CCN(C)CC2)c(OC(C)C)c1
Consider A and B . Which of these has its pIC50 at a higher number? # answer = label of selected item
A

(P) COc1ccc(C2=N[C@H](c3ccc(Cl)cc3)[C@H](c3ccc(Cl)cc3)N2C(=O)N[C@H](C)C(=O)O)c(OC(C)C)c1
(Q) COc1ccc(C2=N[C@H](c3ccc(Cl)cc3)[C@H](c3ccc(Cl)cc3)N2C(=O)NCC(=O)N2CCOCC2)c(OC(C)C)c1
(R) COc1ccc(C2=N[C@H](c3ccc(Cl)cc3)[C@H](c3ccc(Cl)cc3)N2C(=O)NCCC(=O)O)c(OC(C)C)c1
(S) CCN(CC)C(=O)[C@H](C)NC(=O)N1C(c2ccc(OC)cc2OC(C)C)=N[C@H](c2ccc(Cl)cc2)[C@@H]1c1ccc(Cl)cc1
Arrange the 4 compounds from largest to smallest pIC50. Answer by listing the labels in the requested order.
R, P, Q, S

(I) COc1ccc(C2=N[C@H](c3ccc(Cl)cc3)[C@H](c3ccc(Cl)cc3)N2C(=O)N[C@H](C)C(=O)N2CCN(C)CC2)c(OC(C)C)c1
(II) COc1ccc(C2=N[C@H](c3ccc(Cl)cc3)[C@H](c3ccc(Cl)cc3)N2C(=O)N[C@@H](C)C(=O)O)c(OC(C)C)c1
(III) CCOC(=O)[C@H](C)NC(=O)N1C(c2ccc(OC)cc2OC(C)C)=N[C@H](c2ccc(Cl)cc2)[C@@H]1c1ccc(Cl)cc1
(IV) COc1ccc(C2=N[C@H](c3ccc(Cl)cc3)[C@H](c3ccc(Cl)cc3)N2C(=O)NCC(=O)N2CCN(C)CC2)c(OC(C)C)c1
Let's sort these by pIC50, smallest first. Go ahead? Answer by naming the labels in the order asked.
IV, I, II, III

(A) COc1ccc(C2=N[C@H](c3ccc(Cl)cc3)[C@H](c3ccc(Cl)cc3)N2C(=O)N[C@@H](C)C(=O)N2CCN(C)CC2)c(OC(C)C)c1
(B) CCOC(=O)CCNC(=O)N1C(c2ccc(OC)cc2OC(C)C)=N[C@H](c2ccc(Cl)cc2)[C@@H]1c1ccc(Cl)cc1
(C) CCOC(=O)[C@@H](C)NC(=O)N1C(c2ccc(OC)cc2OC(C)C)=N[C@H](c2ccc(Cl)cc2)[C@@H]1c1ccc(Cl)cc1
Give the ascending ranking of the items by reported pIC50. Write the labels in rank order as requested.
A, B, C
(A: 5.22, B: 5.47, C: 6.23)

(A) CCN(CC)C(=O)[C@@H](C)NC(=O)N1C(c2ccc(OC)cc2OC(C)C)=N[C@H](c2ccc(Cl)cc2)[C@@H]1c1ccc(Cl)cc1
(B) CCN(CC)C(=O)CCNC(=O)N1C(c2ccc(OC)cc2OC(C)C)=N[C@H](c2ccc(Cl)cc2)[C@@H]1c1ccc(Cl)cc1
(C) CCN(CC)C(=O)CNC(=O)N1C(c2ccc(OC)cc2OC(C)C)=N[C@H](c2ccc(Cl)cc2)[C@@H]1c1ccc(Cl)cc1
Rank ascending by pIC50. Answer format: list of labels, ordered as asked.
C, A, B
(C: 5.03, A: 5.30, B: 6.19)
